Sourced from patent US6905854B2

# reported Km; entries follow
# assay-name: Kinetic assay of purified DAOCS with penicillin G (standard penicillin G assay, HPLC of cephalosporin G)
# Assay type: biochemical
# condition-details: for penicillin G; 20 μg purified DAOCS, 1 mM α-ketoglutarate, 30° C.; triplicate, Hanes-Woolf Plot
observation-type: Km (µM)

molecule="YS71: mutated penicillin expandase (DAOCS) with substitution A106T (protein, UniProt P18548 1-311, looked up, variant A106T) Deacetoxycephalosporin C …: MDTTVPTFSLAELQQGLHQDEFRRCLRDKGLFYLTDCGLTDTELKSAKDLVIDFFEHGSEAEKRAVTSPVPTMRRGFTGLESESTAQITNTGSYSDYSMCYSMGTTDNLFPSGDFERIWTQYFDRQYTASRAVAREVLRATGTEPDGGVEAFLDCEPLLRFRYFPQVPEHRSAEEQPLRMAPHYDLSMVTLIQQTPCANGFVSLQAEVGGAFTDLPYRPDAVLVFCGAIATLVTGGQVKAPRHHVAAPRRDQIAGSSRTSSVFFLRPNADFTFSVPLARECGFDVSLDGETATFQDWIGGNYVNIRRTSKA" observation_type=Km reported_measurement=1770
molecule="YS67: mutated penicillin expandase (DAOCS) with substitutions V275I and I305M (protein, UniProt P18548 1-311, looked up, variant V275I I305M) Deacetoxycephalosporin C …: MDTTVPTFSLAELQQGLHQDEFRRCLRDKGLFYLTDCGLTDTELKSAKDLVIDFFEHGSEAEKRAVTSPVPTMRRGFTGLESESTAQITNTGSYSDYSMCYSMGTADNLFPSGDFERIWTQYFDRQYTASRAVAREVLRATGTEPDGGVEAFLDCEPLLRFRYFPQVPEHRSAEEQPLRMAPHYDLSMVTLIQQTPCANGFVSLQAEVGGAFTDLPYRPDAVLVFCGAIATLVTGGQVKAPRHHVAAPRRDQIAGSSRTSSVFFLRPNADFTFSIPLARECGFDVSLDGETATFQDWIGGNYVNMRRTSKA" observation_type=Km reported_measurement=250
molecule="YS5: mutated penicillin expandase (DAOCS) with substitution V275I (protein, UniProt P18548 1-311, looked up, variant V275I) Deacetoxycephalosporin C …: MDTTVPTFSLAELQQGLHQDEFRRCLRDKGLFYLTDCGLTDTELKSAKDLVIDFFEHGSEAEKRAVTSPVPTMRRGFTGLESESTAQITNTGSYSDYSMCYSMGTADNLFPSGDFERIWTQYFDRQYTASRAVAREVLRATGTEPDGGVEAFLDCEPLLRFRYFPQVPEHRSAEEQPLRMAPHYDLSMVTLIQQTPCANGFVSLQAEVGGAFTDLPYRPDAVLVFCGAIATLVTGGQVKAPRHHVAAPRRDQIAGSSRTSSVFFLRPNADFTFSIPLARECGFDVSLDGETATFQDWIGGNYVNIRRTSKA" observation_type=Km reported_measurement=1680
molecule="YS11: mutated penicillin expandase (DAOCS) with substitution I305M (protein, UniProt P18548 1-311, looked up, variant I305M) Deacetoxycephalosporin C …: MDTTVPTFSLAELQQGLHQDEFRRCLRDKGLFYLTDCGLTDTELKSAKDLVIDFFEHGSEAEKRAVTSPVPTMRRGFTGLESESTAQITNTGSYSDYSMCYSMGTADNLFPSGDFERIWTQYFDRQYTASRAVAREVLRATGTEPDGGVEAFLDCEPLLRFRYFPQVPEHRSAEEQPLRMAPHYDLSMVTLIQQTPCANGFVSLQAEVGGAFTDLPYRPDAVLVFCGAIATLVTGGQVKAPRHHVAAPRRDQIAGSSRTSSVFFLRPNADFTFSVPLARECGFDVSLDGETATFQDWIGGNYVNMRRTSKA" observation_type=Km reported_measurement=750
molecule="YS12: mutated penicillin expandase (DAOCS) with substitution N304K (protein, UniProt P18548 1-311, looked up, variant N304K) Deacetoxycephalosporin C …: MDTTVPTFSLAELQQGLHQDEFRRCLRDKGLFYLTDCGLTDTELKSAKDLVIDFFEHGSEAEKRAVTSPVPTMRRGFTGLESESTAQITNTGSYSDYSMCYSMGTADNLFPSGDFERIWTQYFDRQYTASRAVAREVLRATGTEPDGGVEAFLDCEPLLRFRYFPQVPEHRSAEEQPLRMAPHYDLSMVTLIQQTPCANGFVSLQAEVGGAFTDLPYRPDAVLVFCGAIATLVTGGQVKAPRHHVAAPRRDQIAGSSRTSSVFFLRPNADFTFSVPLARECGFDVSLDGETATFQDWIGGNYVKIRRTSKA" observation_type=Km reported_measurement=220
molecule="YS110: mutated penicillin expandase (DAOCS) with substitution Y184H (protein, UniProt P18548 1-311, looked up, variant Y184H) Deacetoxycephalosporin C …: MDTTVPTFSLAELQQGLHQDEFRRCLRDKGLFYLTDCGLTDTELKSAKDLVIDFFEHGSEAEKRAVTSPVPTMRRGFTGLESESTAQITNTGSYSDYSMCYSMGTADNLFPSGDFERIWTQYFDRQYTASRAVAREVLRATGTEPDGGVEAFLDCEPLLRFRYFPQVPEHRSAEEQPLRMAPHHDLSMVTLIQQTPCANGFVSLQAEVGGAFTDLPYRPDAVLVFCGAIATLVTGGQVKAPRHHVAAPRRDQIAGSSRTSSVFFLRPNADFTFSVPLARECGFDVSLDGETATFQDWIGGNYVNIRRTSKA" observation_type=Km reported_measurement=950
molecule="YS49: mutated penicillin expandase (DAOCS) with substitution L277K (protein, UniProt P18548 1-311, looked up, variant L277K) Deacetoxycephalosporin C …: MDTTVPTFSLAELQQGLHQDEFRRCLRDKGLFYLTDCGLTDTELKSAKDLVIDFFEHGSEAEKRAVTSPVPTMRRGFTGLESESTAQITNTGSYSDYSMCYSMGTADNLFPSGDFERIWTQYFDRQYTASRAVAREVLRATGTEPDGGVEAFLDCEPLLRFRYFPQVPEHRSAEEQPLRMAPHYDLSMVTLIQQTPCANGFVSLQAEVGGAFTDLPYRPDAVLVFCGAIATLVTGGQVKAPRHHVAAPRRDQIAGSSRTSSVFFLRPNADFTFSVPKARECGFDVSLDGETATFQDWIGGNYVNIRRTSKA" observation_type=Km reported_measurement=720
